Exercise: state measured Neutralization IC50, H1-FM47 for each of the binders provided.
- TESTED_SYSTEM: HA of A/Fort Monmouth/1/47 (H1N1) virus (influenza A virus)
- ASSAY_REMARKS: cell-based or functional assay
Answers are plain numbers, in µg/mL.

BINDER: Antibody 12 (antibody, V domains shown) VH: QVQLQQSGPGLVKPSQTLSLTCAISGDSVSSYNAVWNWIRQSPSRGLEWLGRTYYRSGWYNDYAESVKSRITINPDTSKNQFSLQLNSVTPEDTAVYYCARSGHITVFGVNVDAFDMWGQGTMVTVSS VL: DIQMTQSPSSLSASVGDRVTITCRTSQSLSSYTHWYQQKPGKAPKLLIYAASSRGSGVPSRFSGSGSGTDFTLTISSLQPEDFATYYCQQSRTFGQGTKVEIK
UNIT_INFO: µg/mL
Neutralization IC50, H1-FM47: 0.28
--
BINDER: Antibody 11 (antibody, V domains shown) VH: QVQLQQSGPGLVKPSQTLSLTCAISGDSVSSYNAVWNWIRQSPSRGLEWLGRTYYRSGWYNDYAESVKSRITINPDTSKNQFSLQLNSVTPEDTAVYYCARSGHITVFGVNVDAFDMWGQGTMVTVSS VL: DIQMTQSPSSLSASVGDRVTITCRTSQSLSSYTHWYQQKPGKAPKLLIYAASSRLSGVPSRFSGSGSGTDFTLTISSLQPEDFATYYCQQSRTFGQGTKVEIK
UNIT_INFO: µg/mL
Neutralization IC50, H1-FM47: 0.43
--
BINDER: Antibody 14 (antibody, V domains shown) VH: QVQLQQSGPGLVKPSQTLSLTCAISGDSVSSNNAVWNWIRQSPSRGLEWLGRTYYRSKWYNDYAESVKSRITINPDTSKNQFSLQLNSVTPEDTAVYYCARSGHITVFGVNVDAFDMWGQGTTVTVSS VL: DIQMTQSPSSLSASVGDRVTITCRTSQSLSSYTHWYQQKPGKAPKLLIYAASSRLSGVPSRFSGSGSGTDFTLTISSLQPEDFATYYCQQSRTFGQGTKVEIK
UNIT_INFO: µg/mL
Neutralization IC50, H1-FM47: 0.44
--
BINDER: Antibody 15 (antibody, V domains shown) VH: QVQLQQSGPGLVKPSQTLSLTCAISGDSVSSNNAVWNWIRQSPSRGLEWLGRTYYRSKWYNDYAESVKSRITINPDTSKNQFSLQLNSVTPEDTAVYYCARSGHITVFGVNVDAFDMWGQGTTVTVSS VL: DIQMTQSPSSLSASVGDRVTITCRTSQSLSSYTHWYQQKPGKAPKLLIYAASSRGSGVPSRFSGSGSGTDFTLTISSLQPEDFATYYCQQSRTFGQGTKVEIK
UNIT_INFO: µg/mL
Neutralization IC50, H1-FM47: 0.35

Okay, next one:
## Task Fill blank: measured Neutralization IC50, H1-FM47 of the binder Antibody 13 (antibody, V domains shown) VH: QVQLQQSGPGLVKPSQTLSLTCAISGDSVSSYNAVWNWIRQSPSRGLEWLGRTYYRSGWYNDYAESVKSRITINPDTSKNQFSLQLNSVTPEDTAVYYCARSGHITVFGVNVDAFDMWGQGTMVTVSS VL: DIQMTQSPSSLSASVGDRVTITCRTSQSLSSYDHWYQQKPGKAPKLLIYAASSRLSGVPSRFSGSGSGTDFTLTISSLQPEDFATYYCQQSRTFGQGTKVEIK is ____.
## Result 0.5

Value source: patent US20200109188A1
